A collection of binders and their measured optical density
target-of-assay: T1, human ACVR2A (human, UniProt P27037 20-135, limits assumed); note: test concentration or dose not given here
T1 construct: coated antigen of the initial ELISA; also called activin receptor, type II A
T1 sequence (P27037 20-135 limits assumed): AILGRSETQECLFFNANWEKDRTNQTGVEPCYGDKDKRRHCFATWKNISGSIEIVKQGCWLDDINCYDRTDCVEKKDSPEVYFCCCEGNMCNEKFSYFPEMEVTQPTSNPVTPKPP
assay-protocol: ELISA
Provide only the numeric value, understood in OD.

375_D10 (antibody, V domains shown, Group III) VH: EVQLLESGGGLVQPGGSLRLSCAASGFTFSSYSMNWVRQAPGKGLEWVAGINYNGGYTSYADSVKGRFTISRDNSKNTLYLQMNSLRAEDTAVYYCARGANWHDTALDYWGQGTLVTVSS VL: DIQMTQSPSSLSASVGDRVTITCRASQSILTYVNWYQQKPGKAPKLLIYAATSRASGVPSRFSGSGSGTDFTLTISSLQPEDFATYYCQQSDDSPLTFGGGTKVEIK; 3.26

[Q] Requested read-out: optical density. Entry: 375_E05 (antibody, V domains shown, Group III) VH: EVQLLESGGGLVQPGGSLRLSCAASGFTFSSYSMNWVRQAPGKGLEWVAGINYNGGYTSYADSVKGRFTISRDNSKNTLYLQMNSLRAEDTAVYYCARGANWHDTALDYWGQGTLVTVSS VL: DIQMTQSPSSLSASVGDRVTITCRASQSILSYLNWYQQKPGKAPKLVIYAATSLASGVPSRFSGSGSGTDFTLTISSLQPEDFATYYCQQSYSSPLTFGGGTKVEIK
[A] 3.67

[Q] Given the binder 371_A10 (antibody, V domains shown, Group III) VH: EVQLLESGGGLVQPGGSLRLSCAASGFTFDDYSMNWVRQAPGKGLEWVSGINYNGGYKGYADSVKGRFTISRDNSKNTLYLQMNSLRAEDTAVYYCARGANWHDTALDYWGQGTLVTVSS VL: DIQMTQSPSSLSASVGDRVTITCRASQSIVSYLNWYQQKPGKAPKLVIYAATSRASGVPSRFSGSGSGTDFTLTISSLQPEDFATYYCQQSYENPLTFGGGTKVEIK , what is its reported optical density?
[A] 2.81
